Values compiled from patent US20190010158A1.

tested on: human acute T lymphoblastic leukemia CCRF-CEM cell lines; experiment: Cell growth inhibition 1 (CellTiter-Glo); type: cell-based; settings: culture with test compound 72 hours
// thresholds for IC50 classes: small value: < 6 nM; mid value: ≥ 6 nM and < 40 nM; large value: ≥ 40 nM

COMPOUND	SYSTEM UNDER TEST	ASSIGNED LABEL
Nc1ncnc2c1c(C#Cc1c(F)cccc1F)cn2[C@@H]1O[C@H](CNS(N)(=O)=O)[C@@H](O)[C@H]1O [Reference Example 1]	human acute T lymphoblastic leukemia CCRF-CEM cell lines	mid value
Nc1ncnc2c1c(C#Cc1c(F)cccc1S(N)(=O)=O)cn2[C@@H]1O[C@H](CNS(N)(=O)=O)[C@@H](O)[C@H]1O [Reference Example 84]	human acute T lymphoblastic leukemia CCRF-CEM cell lines	large value
Nc1ncnc2c1c(C#Cc1cccc3c1S(=O)(=O)CCC3)cn2[C@@H]1O[C@H](CNS(N)(=O)=O)[C@@H](O)[C@H]1O [Reference Example 83]	human acute T lymphoblastic leukemia CCRF-CEM cell lines	large value
CCOc1cccc(F)c1C#Cc1cn([C@@H]2C=C(CNS(N)(=O)=O)[C@@H](O)[C@H]2O)c2ncnc(N)c12 [Reference Example 129]	human acute T lymphoblastic leukemia CCRF-CEM cell lines	small value

[in] Textbook exercise: identify the category of the compound given here, Nc1ncnc2c1c(C#Cc1c(F)cc(N3CC[C@@H](O)C3)cc1F)cn2[C@@H]1C[C@H](CNS(N)(=O)=O)[C@@H](O)[C@H]1O [Reference Example 120] , according to its measured value.
[out] mid value

[in] Try CSc1cccc(F)c1C#Cc1cn([C@@H]2C[C@H](CNS(N)(=O)=O)[C@@H](O)[C@H]2O)c2ncnc(N)c12 [Reference Example 98] next.
[out] mid value
